# System: Leishmania donovani
# assayProcedure: Antileishmanial activity against Leishmania donovani promastigotes
# Assay type: functional, organism-based
# conditionLabel: read-out: pIC50 (converted)
measurementType: IC50 (µM)

Below: 5 compounds and their reported IC50.
smilesStructure: CC(=O)c1c(O)c(C=O)c(O)c2c1O[C@]1(C)C[C@@H]3[C@H](C[C@@H]1C2)C3(C)C
IC50 (µM): 4.06

smilesStructure: CC(C)CC(=O)c1c(O)c(C=O)c2c(c1O)C[C@H]1CC[C@H]3[C@H](C3(C)C)[C@@]1(C)O2
IC50 (µM): 0.621

smilesStructure: CC(C)CC(=O)c1c(O)c(C=O)c(O)c2c1O[C@@]1(CO)[C@@H](C2)C[C@H]2C[C@@H]1C2(C)C
IC50 (µM): 7.45

smilesStructure: CC(C)CC(=O)c1c(O)c(C=O)c2c(c1O)C[C@H]1C[C@H]3C[C@H](C3(C)C)[C@@]1(CO)O2
IC50 (µM): 4.48

smilesStructure: CC(=O)c1c(O)c(C=O)c(O)c2c1O[C@@]1(CC2)CC[C@H]2C[C@@H]1C2(C)C
IC50 (µM): 4.65

[1] CC(C)CC(=O)c1c(O)c(C=O)c2c(c1O)C[C@H]1C[C@H]3C[C@H](C3(C)C)[C@@]1(CCO)O2
[2] CC1(C)[C@H]2[C@@H]1CC[C@@H]1Cc3c(O)c(C=O)c(O)c(C=O)c3O[C@@]12C
[3] CC(C)CC(=O)c1c(O)c(C=O)c2c(c1O)CC[C@@]1(CC[C@H]3C[C@@H]1C3(C)C)O2
Ask: # rank_down: sort by IC50, max first Your task in answering is to list the labels in the requested order.
Result: 2, 1, 3
(2: 6.05 µM, 1: 2.28 µM, 3: 1.01 µM)

[A] CC(=O)c1c(O)c(C=O)c2c(c1O)C[C@H]1C[C@H]3C[C@H](C3(C)C)[C@@]1(C)O2
[B] CC(=O)c1c(O)c(C=O)c(O)c2c1O[C@]1(CC2)[C@@H]2CC[C@@H](C2)C1(C)C
Ask: From the recorded data, which exceeds the other in IC50: A or B ? Return value: the label identifying the chosen record.
Result: B

[1] CC(C)CC(=O)c1c(O)c(C=O)c2c(c1O)CC[C@@]1(O2)[C@@H]2CC[C@@H](C2)C1(C)C
[2] CC(C)CC(=O)c1c(O)c(C=O)c(O)c2c1O[C@@]1(CC2)CC[C@H]2C[C@@H]1C2(C)C
[3] CC1(C)[C@H]2C[C@@H]3Cc4c(O)c(C=O)c(O)c(C=O)c4O[C@]3(C)[C@@H]1C2
[4] CC(C)CC(=O)c1c(O)c(C=O)c(O)c2c1O[C@@]1(C)[C@H](CC[C@H]3[C@@H]1C3(C)C)C2
Ask: Give the ascending ranking of the items by reported IC50. Returns: the labels arranged in the requested order.
Result: 1, 4, 2, 3
(1: 0.931 µM, 4: 1.42 µM, 2: 3.1 µM, 3: 7.26 µM)

[a] CC(C)CC(=O)c1c(O)c(C=O)c(O)c2c1O[C@]1(CC2)[C@@H]2CC[C@@H](C2)C1(C)C
[b] CC(C)CC(=O)c1c(O)c(C=O)c(O)c2c1O[C@@]1(CCO)[C@@H](C2)C[C@H]2C[C@@H]1C2(C)C
[c] CC(C)C[C@H]1C[C@@]2(CC[C@H]3C[C@@H]2C3(C)C)Oc2c(C=O)c(O)c(C=O)c(O)c21
[d] CC(C)CC(=O)c1c(O)c(C=O)c2c(c1O)C[C@H]1C[C@H]3C[C@H](C3(C)C)[C@@]1(C)O2
Ask: Write the entries in order, lowest recorded IC50 first. Your answer should be the labels, listed in the requested order.
Result: d, a, c, b

[a] CC(C)CC(=O)c1c(O)c2c(c(C(=O)CC(C)C)c1O)O[C@@]1(CO)[C@@H](C2)C[C@H]2C[C@@H]1C2(C)C
[b] CC(=O)c1c(O)c(C=O)c2c(c1O)C[C@H]1C[C@H]3[C@@H](C[C@@]1(C)O2)C3(C)C
Ask: Consider a and b . Which of these has its IC50 at a higher number? Response format: the label of the selected entry.
Result: a

[I] CC(=O)c1c(O)c(C=O)c(O)c2c1O[C@@]1(C)[C@@H](C2)C[C@H]2C[C@@H]1C2(C)C
[II] CC(=O)c1c(O)c(C=O)c2c(c1O)CC[C@@]1(O2)[C@@H]2CC[C@@H](C2)C1(C)C
Ask: Of I and II , whose reported IC50 is numerically smaller? Field: selected label. Fill in the label of the entry you choose.
Result: II
